Target: human GPR39 receptors on human GPR39-2 cell lines (Homo sapiens, UniProt O43194)
Construct: P2A-mCherry (C)
Sequence (O43194 1-453): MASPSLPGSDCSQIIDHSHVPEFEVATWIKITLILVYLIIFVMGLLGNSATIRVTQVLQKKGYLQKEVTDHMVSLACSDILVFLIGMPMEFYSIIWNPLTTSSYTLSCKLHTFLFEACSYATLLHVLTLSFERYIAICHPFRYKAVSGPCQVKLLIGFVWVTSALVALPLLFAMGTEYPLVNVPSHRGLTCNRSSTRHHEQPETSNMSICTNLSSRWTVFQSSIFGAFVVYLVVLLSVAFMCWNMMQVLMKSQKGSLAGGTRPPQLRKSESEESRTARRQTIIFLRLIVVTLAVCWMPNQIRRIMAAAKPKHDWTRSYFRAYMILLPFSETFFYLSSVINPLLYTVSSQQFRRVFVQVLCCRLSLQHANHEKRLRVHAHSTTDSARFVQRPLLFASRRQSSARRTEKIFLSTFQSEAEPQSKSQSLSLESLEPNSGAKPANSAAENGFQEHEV
Test: FLIPR calcium imaging on human GPR39-2 cell line stably expressing human GPR39
Type: cell-based
Details: EC50 Agonist + 4 μM zinc ions, human GPR39-2 cells, 4 μM zinc ions
metric: EC50

{"molecular-string": "C[C@H](CCC(=O)O)[C@H]1CC[C@H]2[C@@H]3CC[C@@H]4C[C@H](OS(=O)(=O)O)CC[C@]4(C)[C@H]3CC[C@]12C", "obs-value": "970 nM"}

* * *

Target: GPR39 receptors on m39-20 cell lines (Mus musculus, UniProt Q5U431, T447P)
Construct: P2A-mCherry (C); expressed in transfected cells
Sequence (Q5U431 1-456 T447P): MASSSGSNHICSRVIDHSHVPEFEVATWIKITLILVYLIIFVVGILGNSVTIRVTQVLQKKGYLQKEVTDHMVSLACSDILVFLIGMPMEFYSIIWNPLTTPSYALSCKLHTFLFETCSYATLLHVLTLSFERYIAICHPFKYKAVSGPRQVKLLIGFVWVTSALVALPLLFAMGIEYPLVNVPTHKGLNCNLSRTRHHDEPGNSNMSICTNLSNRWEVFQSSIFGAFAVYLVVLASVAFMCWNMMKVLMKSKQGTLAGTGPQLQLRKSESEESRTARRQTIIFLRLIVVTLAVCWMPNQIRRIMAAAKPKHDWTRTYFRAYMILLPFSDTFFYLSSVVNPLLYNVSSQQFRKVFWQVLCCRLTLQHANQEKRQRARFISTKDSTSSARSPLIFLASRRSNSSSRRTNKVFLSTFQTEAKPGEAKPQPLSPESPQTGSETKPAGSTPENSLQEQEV
Experiment: FLIPR calcium imaging on m39-20 cell lines stably expressing murine-derived GPR39
Format: cell-based
Details: read-out: EC50 Agonist + 4 μM zinc ions; m39-20 cells, 4 μM zinc ions
metric: EC50

{"compound": "CCCCCCCCC=CCCCCCCCC(=O)OCC(CO)OC(=O)CCCCCCCC=CCCCCCCCC (stereo not shown) [TM-N 1324, reference compound]", "obs-value": "3.5 µM"}

* * *

Biological target: GPR39 receptors on m39-20 cell lines (Mus musculus, UniProt Q5U431, T447P)
Construct: P2A-mCherry (C); expressed in transfected cells
Test: FLIPR calcium imaging on m39-20 cell lines stably expressing murine-derived GPR39
Assay type: cell-based
Conditions: m39-20 cells, zinc ions 4 μM; read-out: EC50
pEC50: −log10 of the molar value.

{"molecular-string": "C[C@H](CCC(=O)O)[C@H]1CC[C@H]2[C@@H]3CC[C@@H]4C[C@H](OS(=O)(=O)O)CC[C@]4(C)[C@H]3CC[C@]12C", "pEC50": 6.15}

# credit: patent US12569502B2
